Before we begin, note that these IC50 values for Prostaglandin G/H synthase 1 (Homo sapiens) originate from several publications.
assay.metric: IC50 (µM)

Worked cases, IC50 given:
COc1ccc(C(=O)c2ccccc2)cc1C(C)C(=O)O (stereo unspecified)    0.042
CS(=O)(=O)c1ccc(N2N=C(C(F)(F)F)CC2c2cccc3ccccc23)cc1 (stereo unspecified)    15.2
C/C(=C\c1cc(O)cc(O)c1)c1ccc(Cl)cc1    5.3
CC(C)=CCC/C(C)=C/CC1=CC(=O)C=C(C)C1=O    64.3
CS(=O)(=O)c1ccc(-c2sc3ncnn3c2-c2ccc(F)c(F)c2)cc1    30
COc1ccc(/C=C/c2cc(OC)cc(OC)c2/C=C/C(=O)N2CCC(Cl)CC2)cc1    40.6

[I] CC(=O)c1ccc(-c2ccsc2-c2ccc(F)cc2)cc1
[II] C[C@H]1C[C@H]1Cn1ncc(-c2ccc(S(C)(=O)=O)cc2)c(-c2ccc(F)cc2)c1=O (racemic)
[III] O=c1ccc2ccc(O)c(O)c2o1
Task: Endpoint returns the given compounds ordered by ascending IC50. Please list the labels in the order you were asked to rank them.
Result: I, II, III
(I: 0.75 µM, II: 10 µM, III: 140 µM)
